Property: mass density; scope: individual compounds
Conditions: 298.15 K; 101 kPa; Liquid; Vibrating tube method
Lab book: enter the figure in kg/m3, no units written.

// solved cases for mass density follow
CC1CCCC1 [methylcyclopentane]	741.94
CC(C)=O [acetone]	785.41
CCC(C)=O [butanone]	799.74

# evaluate next
Input: Please look at this compound and report its mass density: CCCC(C)=O [pentan-2-one]
Output: 801.42

* * *

Property: viscosity; scope: individual molecules
Conditions: 303.15 K; 101 kPa; Liquid; Capillary tube (Ostwald / Ubbelohde) method
Lab book: enter the figure in mPa·s, no units written.

// solved cases for viscosity follow
CCC(C)=O	0.36
CCCC(C)=O	0.444
CC(C)=O	0.292

# evaluate next
Input: Please look at this molecule and report its viscosity: `CC1CCCC1`
Output: 0.45
